# procedure-text: in vitro
# applied-conditions: human, hela cells, % viability
readout-label: viability at 28.5 h, 10 µM (%)

{"compound": "N#Cc1ccnc(N2CCN(CC(=O)NCC(F)(F)F)CC2)c1", "readout-label": "viability at 28.5 h, 10 µM", "result-number": 95.1}
{"compound": "O=C(NCCc1c[nH]c2ccccc12)c1nn(-c2ncccn2)c2ccccc12", "readout-label": "viability at 28.5 h, 10 µM", "result-number": 77.7}
{"compound": "COc1cc(NC(=O)CC2(C(=O)O)CCCCC2)ccc1N1CCCC1=O", "readout-label": "viability at 28.5 h, 10 µM", "result-number": 109}
{"compound": "CC(C)(C)C1=CC2=NC3(CCCCCCCCCCC3)[C@@H]3C[C@@H](O)[C@@H](O)[C@@H]3N2O1", "readout-label": "viability at 28.5 h, 10 µM", "result-number": 113}
{"compound": "CC1CN(CCCCNCc2cn(C)nc2-c2cccnc2)CC(C)O1 (stereo not shown)", "readout-label": "viability at 28.5 h, 10 µM", "result-number": 92.6}
{"compound": "Cc1nc(SCCO)c2c(=O)n(C)c(=O)n(CC(C)C)c2n1", "readout-label": "viability at 28.5 h, 10 µM", "result-number": 85.8}
{"compound": "CC(C)[C@@H](CO)Nc1nc(-c2cccnc2)cn2ccnc12", "readout-label": "viability at 28.5 h, 10 µM", "result-number": 94}
{"compound": "C=CCNC(=O)[C@H]1C=CCN1S(=O)(=O)c1cccc2ccccc12", "readout-label": "viability at 28.5 h, 10 µM", "result-number": 91}
{"compound": "C[S+]([O-])CCNC(=O)c1cc2c(Cl)cccc2[nH]1 (stereo not shown)", "readout-label": "viability at 28.5 h, 10 µM", "result-number": 83.9}
{"compound": "CN(C)CCN(C)c1cncc(-c2cccs2)n1", "readout-label": "viability at 28.5 h, 10 µM", "result-number": 108}

---

viability at 28.5 h, 10 µM values by entry
# procedure-text: in vitro
# applied-conditions: human, hela cells, % viability
readout-label: viability at 28.5 h, 10 µM

{"molecule": "Cc1cc(C2CCCN2C(=O)c2ccc(C(F)(F)F)nc2)on1 (stereo not drawn)", "readout-label": "viability at 28.5 h, 10 µM", "result": "88.6%"}
{"molecule": "C(=C\\c1ccccc1)/CN1CCN(C2CCN(CCc3ccccc3)CC2)CC1", "readout-label": "viability at 28.5 h, 10 µM", "result": "108%"}
{"molecule": "Cc1ccccc1C(=O)NC(NCC1CCCO1)C(Cl)(Cl)Cl (stereo not drawn)", "readout-label": "viability at 28.5 h, 10 µM", "result": "91.9%"}
{"molecule": "CC(C)CCn1c(=O)c(C(=O)Nc2ccccc2S(N)(=O)=O)c(O)c2ccccc21", "readout-label": "viability at 28.5 h, 10 µM", "result": "104%"}
{"molecule": "CC12CN3CC(C)(CN(C1)C3c1ccc(Br)cc1)C2=O (stereo not drawn)", "readout-label": "viability at 28.5 h, 10 µM", "result": "92.1%"}
{"molecule": "CC(C)(C)OC(=O)NCc1ccc(CNCc2ccc(-c3ccccc3)cc2)cc1", "readout-label": "viability at 28.5 h, 10 µM", "result": "96.8%"}
{"molecule": "CC(=O)NC[C@H]1CN(c2ccc3c(c2)CCSC3)C(=O)O1", "readout-label": "viability at 28.5 h, 10 µM", "result": "99%"}
{"molecule": "CC(=O)c1ccc(-c2cnc3[nH]c(=O)n([C@H](C)c4ccccc4)c3n2)s1", "readout-label": "viability at 28.5 h, 10 µM", "result": "98.2%"}
{"molecule": "Cc1cnc2c(Cl)c(C(=O)NCC(F)(F)F)nn2c1", "readout-label": "viability at 28.5 h, 10 µM", "result": "93.1%"}
{"molecule": "CCn1c(COc2cccc(C)c2)nnc1SCC(=O)c1ccccc1", "readout-label": "viability at 28.5 h, 10 µM", "result": "97.4%"}
{"molecule": "COc1ccc(-c2cc(CC3(NC(C)=O)COC3)no2)cc1", "readout-label": "viability at 28.5 h, 10 µM", "result": "94.5%"}
{"molecule": "CN(C)c1cccc(-c2nc(-c3occc3C=O)cnc2N)c1", "readout-label": "viability at 28.5 h, 10 µM", "result": "92.1%"}
{"molecule": "O=C(N/N=C/C=N/NC(=O)c1ccccc1O)c1ccccc1O", "readout-label": "viability at 28.5 h, 10 µM", "result": "98.2%"}
{"molecule": "CN(Cc1ncc[nH]1)C(=O)c1cn(Cc2cccc(C(F)(F)F)c2)nn1", "readout-label": "viability at 28.5 h, 10 µM", "result": "84.4%"}
{"molecule": "O=C(Nc1ccccc1)c1ccc(F)cc1-n1cnnn1", "readout-label": "viability at 28.5 h, 10 µM", "result": "111%"}
{"molecule": "CC(C)(CN)CN(Cc1c[nH]c(-c2ccccc2)n1)C(=O)Nc1ccc(C(C)(C)C)cc1 [CBK002462C]", "readout-label": "viability at 28.5 h, 10 µM", "result": "87.5%"}
{"molecule": "Cc1cc(COc2nc3ccccc3nc2N2CCCC2)no1", "readout-label": "viability at 28.5 h, 10 µM", "result": "109%"}
{"molecule": "O=S(=O)(NCCN1CCOCC1)c1cc(Cl)ccc1Cl", "readout-label": "viability at 28.5 h, 10 µM", "result": "85.1%"}
{"molecule": "Cc1cccc(-c2ccc3c(c2)C(=O)N2CC[C@H](NC(=O)NC(C)C)C[C@H]2C(=O)N3)c1C", "readout-label": "viability at 28.5 h, 10 µM", "result": "97.9%"}
{"molecule": "O=C(c1ccccc1)c1ccc2[nH]c(-c3ccc(NC(=O)c4ccccc4Cl)cc3)nc2c1", "readout-label": "viability at 28.5 h, 10 µM", "result": "83.7%"}
{"molecule": "Fc1ccccc1CN1CCC(Oc2cncc(OCCN3CCOCC3)n2)C1 (stereo not drawn)", "readout-label": "viability at 28.5 h, 10 µM", "result": "94.9%"}
{"molecule": "c1cnc(Oc2ccc(CN3CCCC(c4cn[nH]c4)C3)cc2)cn1 (stereo not drawn)", "readout-label": "viability at 28.5 h, 10 µM", "result": "86.6%"}
{"molecule": "CS(=O)(=O)N1CC2(CCN(Cc3ccccc3F)CC2)c2ccccc21", "readout-label": "viability at 28.5 h, 10 µM", "result": "103%"}
{"molecule": "CC(C)(CO)NC(=O)COc1ccc(Cl)cc1", "readout-label": "viability at 28.5 h, 10 µM", "result": "103%"}
{"molecule": "CCCCN(C)c1c(C)nc2c(Oc3ncccn3)cccn12", "readout-label": "viability at 28.5 h, 10 µM", "result": "90.9%"}
{"molecule": "COCCNc1nc(-c2ccc(F)cc2)cnc1N", "readout-label": "viability at 28.5 h, 10 µM", "result": "116%"}
{"molecule": "COc1ccc(C(=O)NNC(=O)c2cccc(O)c2)cc1", "readout-label": "viability at 28.5 h, 10 µM", "result": "118%"}
{"molecule": "CC(C)(C)NC(=O)c1nn2c(c1Br)NC(c1cccs1)CC2C(F)(F)F (stereo not drawn)", "readout-label": "viability at 28.5 h, 10 µM", "result": "84.9%"}
{"molecule": "CC(C)CC(C(=O)O)N1C(=O)/C(=C2/C(=O)Nc3ccc(Br)cc32)SC1=S (stereo not drawn)", "readout-label": "viability at 28.5 h, 10 µM", "result": "84.7%"}
{"molecule": "CCCNc1cc(-c2cccc(Cl)c2)nc2ccnn12", "readout-label": "viability at 28.5 h, 10 µM", "result": "112%"}
{"molecule": "COc1ccc(-n2c(Cc3ccccc3)nnc2SCC(=O)c2ccccc2)cc1", "readout-label": "viability at 28.5 h, 10 µM", "result": "105%"}
{"molecule": "N/C(=N\\OC(=O)COc1ccc2ccccc2c1)c1ccncc1", "readout-label": "viability at 28.5 h, 10 µM", "result": "89.1%"}
{"molecule": "O=C(CCC1CCCC1)n1ccn(-c2ccc3c(c2)OCO3)c1=O", "readout-label": "viability at 28.5 h, 10 µM", "result": "101%"}
{"molecule": "COc1cc(CN2CCN(C(=O)c3cccnc3)CC2)cc(OC)c1O [CBK265210G]", "readout-label": "viability at 28.5 h, 10 µM", "result": "85.2%"}
{"molecule": "Cn1c(=O)c2c(ncn2CC(=O)Nc2ccc(C#N)cc2)n(C)c1=O", "readout-label": "viability at 28.5 h, 10 µM", "result": "90.9%"}
{"molecule": "Cc1cc(N2CCOCC2)nc(N)n1", "readout-label": "viability at 28.5 h, 10 µM", "result": "99.1%"}
{"molecule": "CCN1CCc2nc(NC(=O)c3ccc(Cl)cc3)sc2C1", "readout-label": "viability at 28.5 h, 10 µM", "result": "86.3%"}
{"molecule": "O=C1Nc2ccc(S(=O)(=O)NCCCO)c3cccc1c23", "readout-label": "viability at 28.5 h, 10 µM", "result": "85.9%"}
{"molecule": "CCCCc1c(O)nc(SCC(=O)NCC2CCCO2)[nH]c1=O (stereo not drawn)", "readout-label": "viability at 28.5 h, 10 µM", "result": "97.6%"}
